Each entry below lists one item and its recorded CCL2 Expression as Percentage of Positive Control value.
Biological target: human SCF248 (stem cell factor 248 isoform) expressed on mouse SI/SI4 cells (human), P21583
Sequence (P21583 26-273): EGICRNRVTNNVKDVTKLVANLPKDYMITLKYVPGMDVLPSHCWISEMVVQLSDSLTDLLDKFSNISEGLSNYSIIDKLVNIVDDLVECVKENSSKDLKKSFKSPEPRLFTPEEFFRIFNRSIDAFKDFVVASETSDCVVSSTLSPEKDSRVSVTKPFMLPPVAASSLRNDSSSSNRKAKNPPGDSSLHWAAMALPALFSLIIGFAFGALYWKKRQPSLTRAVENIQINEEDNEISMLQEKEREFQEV
Assay: cell-based or functional assay
Just the number please, in %, no unit attached.

binder="A104P mutant expressed as full length IgG4 antibody (antibody, V domains shown, Full length IgG4) VH: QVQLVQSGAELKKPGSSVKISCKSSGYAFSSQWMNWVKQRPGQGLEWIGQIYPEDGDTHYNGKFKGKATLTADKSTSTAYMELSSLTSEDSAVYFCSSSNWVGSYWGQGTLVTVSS VL: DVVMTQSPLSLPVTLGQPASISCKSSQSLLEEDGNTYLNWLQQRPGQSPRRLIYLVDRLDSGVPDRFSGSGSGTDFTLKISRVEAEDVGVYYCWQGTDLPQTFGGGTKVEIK" unit_tag=% endpoint_value=27.4
binder="A84P mutant expressed as full length IgG4 antibody (antibody, V domains shown, Full length IgG4) VH: QVQLVQSGAELKKPGSSVKISCKSSGYAFSSQWMNWVKQRPGQGLEWIGQIYPEDGDTHMNGKFKGKATLTADKSTSTAYMELSSLTSEDSAVYFCSSSNWVGSYWGQGTLVTVSS VL: DVVMTQSPLSLPVTLGQPASISCKSSQSLLEEDGNTYLNWLQQRPGQSPRRLIYLVDRLDIGVPDRFSGSGSGTDFTLKISRVEAEDVGVYYCWQGTDLPQTFGGGTKVEIK" unit_tag=% endpoint_value=35.6

Q) Please look up its CCL2 Expression as Percentage of Positive Control: B114P mutant expressed as full length IgG4 antibody (antibody, V domains shown, Full length IgG4) VH: QVQLVQSGAELKKPGSSVKISCKSSGYAFSSQWMNWVKQRPGQGLEWIGQIYPEDGDTHMNGKFKGKATLTADKSTSTAYMELSSLTSEDSAVYFCSSSNWDGSYWGQGTLVTVSS VL: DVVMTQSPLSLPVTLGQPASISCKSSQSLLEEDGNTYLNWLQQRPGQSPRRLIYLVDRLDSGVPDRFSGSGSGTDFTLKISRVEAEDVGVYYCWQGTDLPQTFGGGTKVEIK
A) 59.1

Values from patent US20240182556A1
